Molecular target: T1, human LAG3 (human, UniProt P18627 29-450, limits assumed)
T1 construct: also called hLAG3
T1 sequence: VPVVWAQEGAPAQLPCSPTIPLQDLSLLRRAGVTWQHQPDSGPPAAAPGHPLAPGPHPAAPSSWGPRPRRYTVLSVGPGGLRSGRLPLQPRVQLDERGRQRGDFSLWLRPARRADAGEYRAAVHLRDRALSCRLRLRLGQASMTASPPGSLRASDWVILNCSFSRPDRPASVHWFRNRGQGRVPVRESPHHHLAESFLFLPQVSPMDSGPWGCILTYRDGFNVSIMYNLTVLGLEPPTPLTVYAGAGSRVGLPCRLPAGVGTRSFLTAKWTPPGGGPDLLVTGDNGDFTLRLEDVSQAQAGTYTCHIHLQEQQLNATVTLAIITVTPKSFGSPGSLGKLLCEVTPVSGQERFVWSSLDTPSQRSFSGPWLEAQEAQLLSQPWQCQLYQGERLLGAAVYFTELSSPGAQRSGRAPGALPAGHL
Experiment: BLI (Octet) as in Examples 1-4, His-tagged VHH, human LAG3
metric: koff (s⁻¹)
Write the number in s⁻¹ without appending the unit.

binder: LG-D8 (VHH, not shown: C-terminal His-tag) VHH: QVQLVESGGGLVQPGGSLRLSCAASGFTFGKYAMSWVRQVPDKGLEWVSSISSSGRDTSYADSAKGRFTIFRNNAANTVYLQMDNLKLEDTGVYYCVKCLEVWATREYDGWGQGTQVTVSS
koff / s⁻¹: 9.82e-05
--
binder: LG19 (VHH, not shown: C-terminal His-tag) VHH: QVQLVESGGGLVQPGGSLRLSCAASGFTLDYYAIGWFRQAPGKEREGVSCISSSDGSTYYADSVKGRFTISRDNAKNTVYLQMNSLKPEDTAVYYCAADRRGSCRQYDYWGQGTQVTVSS
koff / s⁻¹: 1.09e-05
--
binder: LG99 (VHH, not shown: C-terminal His-tag) VHH: EVQLLESGGGLVQPGGSLRLSCAASGSTIDDYPMSWFRQAPGKGREGVAAIDDSDESTYYADSVKGRFTISRDNSKNTLYLQMNSLRAEDTAVYYCARGALFMIDGVDVFLTYYFEFWGQGTLVTVSS
koff / s⁻¹: 2.91e-05

For the next question, use this binder.
Request: Which koff is reported for this binder? LG22 (VHH, not shown: C-terminal His-tag) VHH: EVQLVESGGGLVQPGGSLRLSCAASGFTLDYYAIGWFRQAPGKEREGVSCIINSDGSTYYADSVKGRFTISRDNAKNTVYLQMNSLKPEDTAVYYCATDRYSDCRGPYDYWGQGTQVTVSS
Result: 1.14e-05
